Parameter 'readout' = GI50; parameter 'system' = NCI-H226 lung.
measured.parameter: GI50

COc1ccc(/C=C2\CN(Cc3cn(CCCNc4ccnc5cc(Cl)ccc45)nn3)C/C(=C\c3ccc(OC)c(OC)c3)C2=O)cc1OC 1.97 µM
Cn1ncc2c(/N=C/c3cccs3)[nH]c(=S)nc21 10.5 µM
CCOC(=O)c1c(C)nc2ccc(Cl)cc2c1-c1ccccc1 19.2 µM
CCOC(=O)c1c(-c2ccccc2)[n+](=O)c2ccc(Cl)cc2n1[O-] 5.2 µM
CCCCCCCC/C=C/CCCCCCCC1=NC(C)(C)CN1C(C)C 1.75 µM

====

Tested on: SF-268 CNS
Assay: NCI tumour cell line growth inhibition, 48 h
Quick reference: TGI of the listed items.
measured.parameter: TGI

C/C(=N\NC(=O)c1cccnc1)c1cccc(/C(C)=N/NC(=O)c2cccnc2)n1 30.6 µM
Cc1cccc(N=Nc2c(C)nn(C(=O)CC(=O)Nc3ccccc3)c2C)c1 > 100 µM
O=C(Nc1n[nH]c2nc(-c3ccco3)ccc12)C1CC1 > 25 µM

====

Tested on: UACC-62 melanoma
Assay: NCI tumour cell line growth inhibition, 48 h

molecule	experimental.system	TGI
O=C1C2=Cc3ccccc3OC2(O)Oc2cc(O)ccc21 (centres undefined)	UACC-62 melanoma	> 100 µM
NC(=O)N/N=C(\C(=O)C(=O)Nc1ccc(Cl)c(C(F)(F)F)c1)c1nc2ccc(C(=O)c3ccccc3)cc2[nH]c1=O	UACC-62 melanoma	> 100 µM
CCOC(=O)C(Cc1c2ccccc2cc2ccccc12)(NC(C)=O)C(=O)OCC	UACC-62 melanoma	> 80.9 µM
Oc1ccc(CNCc2ccccc2)c2cccnc12	UACC-62 melanoma	> 34.8 µM

====

System: SF-268 CNS
Quick reference: GI50 of the listed items.
measured.parameter: GI50

C#CCN=C(N/N=C/c1ccc([N+](=O)[O-])o1)NS(=O)(=O)c1cc(C)c(Cl)cc1SCC(N)=O 15 µM
CCOC(=O)c1ccc(N(CCOS(C)(=O)=O)CCOS(C)(=O)=O)cc1C 22 µM
S=c1nc2[nH]ncc2c(N/N=C/c2ccccc2)[nH]1 > 100 µM
COc1cc(/C=C2\CN(C)C/C(=C\c3cc(OC)c(OC)c(OC)c3)C2=O)cc(OC)c1OC 0.346 µM
C=C1C(=O)O[C@H]2[C@H]1CC/C(COC(=O)CCCCCCCCC(=O)OC/C1=C/CC[C@@]3(C)O[C@H]3[C@H]3OC(=O)C(=C)[C@@H]3CC1)=C\CC[C@@]1(C)O[C@@H]21 1.86 µM
Cc1n[nH]c(=S)n1/N=C/c1ccc(F)c(Oc2ccccc2)c1 28.4 µM
C/C(CC(=O)NNc1ccc([N+](=O)[O-])cc1)=N\Nc1ccc([N+](=O)[O-])cc1 13.4 µM
O=C(Nc1ccccc1)Nc1cccc(-n2cc(-c3ccncc3)c(-c3ccc(O)c(Cl)c3)n2)c1 5.73 µM

====

Test system: EKVX NSCLC
Test: NCI tumour cell line growth inhibition, 48 h
Quick reference: TGI of the listed items.
measured.parameter: TGI

molecule	measurement
COc1c2c(cc3c1C(O)N1CC[C@]34[C@H]3O[C@H]3[C@H](OC)C[C@@H]14)OCO2 (some centres undefined)	> 100 µM
Cc1ccc(OCC2OC(C#N)C(Oc3ccc(C)cc3)C2Oc2ccc(C)cc2)cc1 (centres undefined)	> 100 µM
CC1(C)CCC2(C(=O)OC3OC(CO)C(O)C(O)C3O)CCC3(C)C(=CCC4C5(C)CCC(OC6OC(CO)C(O)C(O)C6O)C(C)(C)C5CCC43C)C2C1 (centres undefined)	> 25 µM
CC(C)NCC(O)COC(=O)c1cccs1 (centres undefined)	> 100 µM
COC(=O)C(=O)c1c2ccccc2n2ccc3c4ccccc4[nH]c3c12	> 10 µM
CCOC(=O)C(NC(=O)c1ccccc1)(Nc1ccc(S(=O)(=O)Nc2nc(C)cc(C)n2)cc1)C(F)(F)F (centres undefined)	> 100 µM
CS(=O)(=O)c1nc(-c2cc3c(c(S(C)(=O)=O)n2)CCCC3)cc2c1CCCC2	> 100 µM
CC(C)OCC(O)COc1ccc2ccc(=O)oc2c1 (centres undefined)	> 100 µM
N=C1N(c2ccccc2)C(=O)C23CCCC2C13N1CCOCC1 (centres undefined)	> 100 µM
